- target_or_system: mouse transferrin receptor (mTfR) (Mus musculus, UniProt Q62351 89-763)
- Sequence (Q62351 89-763): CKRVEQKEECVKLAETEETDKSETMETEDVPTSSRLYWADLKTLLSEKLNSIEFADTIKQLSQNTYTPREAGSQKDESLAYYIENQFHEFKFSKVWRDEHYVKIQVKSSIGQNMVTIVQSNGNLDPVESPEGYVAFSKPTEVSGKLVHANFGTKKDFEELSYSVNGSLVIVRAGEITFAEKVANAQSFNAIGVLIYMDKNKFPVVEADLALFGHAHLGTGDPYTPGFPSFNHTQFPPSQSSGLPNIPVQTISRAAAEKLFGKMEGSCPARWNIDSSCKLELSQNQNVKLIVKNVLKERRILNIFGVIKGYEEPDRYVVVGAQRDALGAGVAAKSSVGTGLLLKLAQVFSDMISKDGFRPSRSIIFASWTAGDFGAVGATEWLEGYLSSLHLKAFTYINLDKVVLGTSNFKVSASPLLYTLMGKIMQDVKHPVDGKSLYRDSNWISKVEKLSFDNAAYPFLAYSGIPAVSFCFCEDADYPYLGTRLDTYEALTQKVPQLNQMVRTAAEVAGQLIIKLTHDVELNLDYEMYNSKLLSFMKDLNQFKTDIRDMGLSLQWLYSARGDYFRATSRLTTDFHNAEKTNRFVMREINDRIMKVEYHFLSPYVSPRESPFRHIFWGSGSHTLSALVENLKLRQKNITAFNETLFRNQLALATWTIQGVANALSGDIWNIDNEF
- assay_procedure: fluorescence anisotropy
measured_parameter: Kd (nM)
Give the number; nM is assumed, so skip it.

Query: # lookup: Kd of GCGTGTGCACACGGTCACTTAGTATCGCTACGTTCTTTGGTTCCGTTCGG (structured_DNA, 5' amino C6 linker) [GS24 fold A-2F (purified active fold)]
Reply: 130
